experiment: In vivo pharmacokinetics in Wistar rat; conditions: plasma, iv, 2 mg/kg
ENDPOINT NAME: clearance (mL/min/kg)
Numeric only. Scale: mL/min/kg

QUERY: Request the reported clearance associated with Cc1cc(-c2ccc(C#N)cc2)cc(C)c1Oc1nc(NC2CCN(Cc3ccc(C(N)=O)cc3)CC2)nc2ccsc12
RESULT: 25

* * *

tested on: HIV-1 L100I mutant strain; assay: microbe, parasite or virus in culture; assay type: cell-based; conditions: Human immunodeficiency virus 1, MT4, read-out: EC50 L100I
# class assignment by measured EC50: bin 0: < 200 nM; bin 1: ≥ 200 nM and < 400 nM; bin 2: ≥ 400 nM

Illustrative cases are given below, each with its answer.
In [3]: df
Out[3]:
                                   compound  answer_label
0  Cc1cc(-c2ccc(F)cc2)cc(C)c1Oc1nc(NC2CCN(Cc3ccc(C(N)=O)cc3)CC2)nc2ccsc12         bin 0
1  Cc1cc(-c2ccccc2)cc(C)c1Oc1nc(NC2CCN(Cc3ccc(S(N)(=O)=O)cc3)CC2)nc2ccsc12         bin 1
2  Cc1cc(-c2ccoc2)cc(C)c1Oc1nc(NC2CCN(Cc3ccc(C(N)=O)cc3)CC2)nc2ccsc12         bin 1
3  Cc1cc(-c2ccc(C#N)cc2)cc(C)c1Oc1nc(NC2CCN(Cc3ccc(C(N)=O)cc3)CC2)nc2ccsc12         bin 0
4  COc1ccc(-c2cc(C)c(Oc3nc(NC4CCN(Cc5ccc(S(N)(=O)=O)cc5)CC4)nc4ccsc34)c(C)c2)cc1         bin 0
5  Cc1cc(-c2cccs2)cc(C)c1Oc1nc(NC2CCN(Cc3ccc(C(N)=O)cc3)CC2)nc2ccsc12         bin 2
6  Cc1ccnc2c1NC(=O)c1cccnc1N2C1CC1 [NVP, Nevirapine, reference compound]         bin 2
7  Cc1cc(-c2ccoc2)cc(C)c1Oc1nc(NC2CCN(Cc3ccc(S(N)(=O)=O)cc3)CC2)nc2ccsc12         bin 0

QUERY: Determine which band this compound sits in: Cc1cc(-c2ccsc2)cc(C)c1Oc1nc(NC2CCN(Cc3ccc(C(N)=O)cc3)CC2)nc2ccsc12
RESULT: bin 2

QUERY: Determine which band this compound sits in: Cc1cc(C#N)cc(C)c1Oc1nc(Nc2ccc(C#N)cc2)nc(N)c1Br [ETR, Etravirine, reference compound]
RESULT: bin 0

QUERY: Determine which band this compound sits in: Cc1cc(-c2ccccc2)cc(C)c1Oc1nc(NC2CCN(Cc3ccc(C(N)=O)cc3)CC2)nc2ccsc12
RESULT: bin 2

* * *

molecular target: WT HIV-1 RT (Human immunodeficiency virus type 1 group M subtype B, UniProt P03366); assay: Recombinant HIV-1 RT inhibitory assay
ENDPOINT NAME: IC50 (nM)
Numeric only. Scale: nM

Solved cases (3 shown):
>>> print(df.to_string())
                  compound_structure_string  recorded_result
0  Cc1cc(-c2ccsc2)cc(C)c1Oc1nc(NC2CCN(Cc3ccc(S(N)(=O)=O)cc3)CC2)nc2ccsc12              167
1  Cc1cc(-c2cccc(N(C)C)c2)cc(C)c1Oc1nc(NC2CCN(Cc3ccc(C(N)=O)cc3)CC2)nc2ccsc12              271
2  Cc1cc(-c2cccc(N(C)C)c2)cc(C)c1Oc1nc(NC2CCN(Cc3ccc(S(N)(=O)=O)cc3)CC2)nc2ccsc12             1680

Here's the next entry for you.
QUERY: Request the reported IC50 associated with Cc1cc(-c2cccc(C#N)c2)cc(C)c1Oc1nc(NC2CCN(Cc3ccc(S(N)(=O)=O)cc3)CC2)nc2ccsc12
RESULT: 207

The origin of these recorded values is paper PMC7280082.
